- test system: T1, TNFR1 (Homo sapiens, UniProt P19438)
- T1 chain: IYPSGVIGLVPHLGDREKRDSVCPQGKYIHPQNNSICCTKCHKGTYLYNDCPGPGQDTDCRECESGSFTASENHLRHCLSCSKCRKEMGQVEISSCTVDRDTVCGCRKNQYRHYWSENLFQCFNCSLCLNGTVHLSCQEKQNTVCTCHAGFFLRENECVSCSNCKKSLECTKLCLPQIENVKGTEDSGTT
- protocol description: yeast display SC50
quantity: apparent Kd (screen) (pM)

[a] E4C (designed binder) SMECEVEKAAKEYEKKKKEAIEKHLEKLKAKDKEAAERFLKELEEAAKEYAKDEAKTMSEEEAKRRAKKYKEKVLLSELSEEEQKEIKEAEEKLVRTILKYVEEAAK
[b] E5T (designed binder) SMEETVEKAAKEYEKKKKEAIEKHLEKLKAKDKEAAERFLKELEEAAKEYAKDEAKTMSEEEAKRRAKKYKEKVLLSELSEEEQKEIKEAEEKLVRTILKYVEEAAK
Enquiry: Identify the entry with the larger apparent Kd (screen). Options: a and b When you have decided, please share the label of that item.
Return: a
